- System: HIV-1RF isolate
- Protocol description: in vitro
- Assay type: cell-based
- Measurement conditions: human, sr, selectivity ratio, i.e., CC50/EC50, CC50/EC50
Readout type: selectivity ratio

Value of measured selectivity ratio for the entry CCCc1c(C)sc2nc(-c3ccc(O)c(O)c3)[nH]c(=O)c12 [Compound 24] : ~6

These entries and their values trace back to paper PMC3880631.
